- STUDY SYSTEM: T1, Recombinant human PSGL-1(ECD)-hFc1 (R&D Systems, Cat. 3345-PS) (human, UniProt Q14242 42-305)
- T1 construct: Bought; Gln42-Val295 counted on AAC50061; also called PSGL-1-Fc; PSGL-1-hFc1 chimera; not shown: human IgG1 Fc, Pro100-Lys330
- T1 sequence: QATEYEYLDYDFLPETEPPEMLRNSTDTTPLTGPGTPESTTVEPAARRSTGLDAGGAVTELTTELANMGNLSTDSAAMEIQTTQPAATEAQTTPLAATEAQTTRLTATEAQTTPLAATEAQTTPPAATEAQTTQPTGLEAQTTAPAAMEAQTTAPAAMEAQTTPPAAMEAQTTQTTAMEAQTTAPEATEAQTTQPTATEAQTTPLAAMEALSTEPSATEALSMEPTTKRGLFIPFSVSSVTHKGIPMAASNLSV
- ASSAY PROCEDURE: ELISA, 50 nM mAb
Below is a list of entries, each paired with its recorded A450nm value.
Form entry: value (A450nm) — number only.

Take a look at these entries with their results.
[
  {
    "BINDER": "09A02 (antibody, IgG4, V domains shown) VH: EVQLVQSGGGLVKPGGSLRLSCAASGFTFRTAWMSWVRQAPGKGLEWVGRMKSKNDGGTTDYAAPVKGRFTISRDDSRDTVYLQMNSLKTEDTGVYYCATYAAGATVPWGQGTLVTVSS VL: DIVMTQTPLSAPVTLGQPASISCRSSRSLLQRNGYNYVDWYQQKAGNPPRLLIYLGSRRASGVPDRFSGSGSDKDFTLKISRVEADDVGFYFCKQSLQAPPTFGGGTKIEIT",
    "A450nm (A450nm)": 2.51
  },
  {
    "BINDER": "10F01 (antibody, IgG4, V domains shown) VH: EVQLVQSGGGLVQPGGSLRLSCAASGFTFSSYAMSWVRQAPGKGLEWVSALRGGDGGTYHADSVKGRFTISGDSSKNTLYLQMNSLRAEDTAVYYCARRMVGAAYAFDIWGQGTMVTVSS VL: LPVLTQPHSVSESPGKTVTISCTRSSGSIADNFVQWYRQRPGSAPTTVIYEGDQRPSGVPGRFSGSIDSSSNSASLTISGLQTDDEADYYCQSFDSYNRRTHVVFGGGTKLTVL",
    "A450nm (A450nm)": 2.1
  },
  {
    "BINDER": "08C07 (antibody, IgG4, V domains shown) VH: QMQLVQSGAEVKKPGSSVKVSCKASGGTFSNYGMIWVRQAPRQGLEWMGRIIPFLDKPDYSEKFQDRITFTADKSTSTVYMELRGLRSDDTAVYYCAKWTSTLQGITTGQTWGQGTLVTVSS VL: QPVLTQPPSASGTPGQRVTISCSGSSSNIGGSYMYWYQQFPGTAPKLLIYRNNQRPSGVPDRFSGSKSGTSASLAISGLRSEDEADYYCAAWDVSLSGWVFGGGTKLTVL",
    "A450nm (A450nm)": 1.78
  },
  {
    "BINDER": "09D04 (antibody, IgG4, V domains shown) VH: QVQLQQSGGGLVQPGGSLTLSCVGSGFDFRSYAMSWVRQAPGKGLEWVSGINNSGSKTYYADFVKGRFSVSRDNSKNIVWLRMRSLRAEDTAVYYCARRTFGPPHAWGQGTMVTVSS VL: DVVMTQSPLSLPVTPGEPASISCRSSQSLLHSNGYTYLEWYLHKPGQSPQLLIYLGSNRASGVPDRFSGSGSGTDFTLKISRVEAEDVGVYYCMHSLHIPFTFGPGTKVDIK",
    "A450nm (A450nm)": 2.66
  },
  {
    "BINDER": "02E06 (antibody, IgG4, V domains shown) VH: QVQLVQSGAEVKKPGASVKVSCKASGYSFTDYYMHWVRQAPGQGLEWMGWMNPNSGNTGYAQTFQGRVTMTRNTSISTAYMELSSLRSEDTAVYYCARGRRVRGTPTFEYWGQGTLVTVSS VL: QSVVTQPPSASGTPGQRVTISCSGRSSNIGSYTVNWFQHLPGTGPKLLIYGNNQRPSGVPGRFSGSKSGTSASLAISGLQSNDEATYYCAAWDDSLNGHYVFGTGTKVTVL",
    "A450nm (A450nm)": 1.8
  }
]

I am curious: what A450nm value has been reported for 06A07 (antibody, IgG4, V domains shown) VH: QVQLVQSGPELKNPGASVKVSCKASGYSFTNFYINWVRQAPGRGLEWVGWISPNNGNTHYARNLQGRVTMTTDTSTNTAYLELKNLRSDDTAIYFCGRSVSMGYWGQGTLVTVSS VL: LPVLTQPPSVSKGLRQTATLTCTGNSKNVGNQGAAWLQQHQGQPPKLLSYRNNNRPSGISERFSASRSGNTASLTITGLQPEDEADYYCSAWDSSLSAQVFGGGTKLTVL ?
2.51

Requested field: A450nm. Item: 05A11 (antibody, IgG4, V domains shown) VH: EVKLLESGGGVVQPGRSLRLSCAASGFSFSAYGMHWVRQAPGKGLEWVSSISGSGDGTYYADSVKGRFTISRDNSKNTLYLQMNSLRAEDAAVYYCAKSVKGRGYFFDYWGQGTLVTVSS VL: DIVLTQSPSSLSASVGDRVTITCRASQSISSYLNWYQQKPGKAPKLLIYAASSLQSGVPSRFSGSGSGTDFTLSISNLQPEDFATYYCQQAYKFPRSFGGGTKVEFK
1.99

Can you share its A450nm? I mean this binder: 05D01 (antibody, V domains shown) VH: QVTLRESGGALVQPGGSLRLSCAASGFPLRSNAMTWVRQAPGKGLEWVSDIRGNGASTYYADSVKGRFTISRDDSNNILFLQMNSLRAEDTAVYYCVGHGSSSYWGQGTLVTVSS VL: DVVMTQSPLSLPVTLGQPASISCRSSQSLVYRDGNIYLNWFQQRPGQSPRRLIYKVSNRDSGVPDRFSGSGSGTDFTLKISRVEAEDVGVYYCMQLTHWPPGFAQGTKLEIK
2.33

A450nm lookup needed for 19I01 (antibody, V domains shown, From mouse immunisation; only variable domains given; also called 19101) VH: EVQLVESGGGLVKPGGSRKLSCAASGFTFSDYGMHWVRQAPEKGLEWVAYISSGSSTIYYADTVKGRFTISRDNAKNTLFLQMTSLRSEDTAMYYCARGVDGYWGQGTTLTVSS VL: DVVMTQTPLSLPVSLGDQASISCRSSQSLVHSNGNTYLHWYLQKPGQSPKFLIYKVSNRFSGVPDRFSGSGSGTDFTLKISRVEAEDLGVYFCSQTTHVPLTFGAGTKLELK , thanks.
2.33

What value of A450nm has been recorded for this entry: 05H03 (antibody, IgG4, V domains shown) VH: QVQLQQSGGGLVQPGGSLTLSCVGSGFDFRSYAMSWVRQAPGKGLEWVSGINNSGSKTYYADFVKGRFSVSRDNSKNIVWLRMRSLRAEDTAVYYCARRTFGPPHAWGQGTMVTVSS VL: DIVMTQSPLSLSVTPGEPASISCRSSQSLLHSNGYKYLDWYLQKPGQSPQLLIYMGSNRASGVPDRFSGSGSGTDFTLKISRVEAEDVGVYYCMQGLQSPLTFGGGTKVEIE
2.58
